B1: Chromodomain-helicase-DNA-binding protein 7, residues 2564 to 2605; numbered along this chain, Q9P2D1 (parent)
chain: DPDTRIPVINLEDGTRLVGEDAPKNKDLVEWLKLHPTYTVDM

- Variants of: B1
- assay-summary: abundance fitness (aPCA) (normalised: wild type 0, dead -1); higher = more abundant; growth selection in yeast, the domain comes from the species named
- run-parameters: Homo sapiens
Response field class: enum, chosen by comparing abundance fitness against c1 = under -0.4, c2 = from -0.4 up to -0.1, c3 = -0.1 and over

Determine which band this variant sits in: DPDTRIPVINLEDGTRLVGEDAPKNKDLVEWLKLHPTYTVEM [D41E]
c2

The entry to classify is DPDTRIPVINLEDGTRLVGEDAPKNKDLVKWLKLHPTYTVDM [E30K] ; which class holds it?
c2

Band for the recorded abundance fitness of DPDTRIPVINKEDGTRLVGEDAPKNKDLVEWLKLHPTYTVDM [L11K] ?
c3

Exam item: assign DPLTRIPVINLEDGTRLVGEDAPKNKDLVEWLKLHPTYTVDM [D3L] to the correct category.
c2

Place this variant in its band: DPDTRIPVINLEDGTRLVGEDAPKNFDLVEWLKLHPTYTVDM [K26F]
c1

State the class of the variant shown: DPDTRIPVINLEDGTRLVGEDAPKNKPLVEWLKLHPTYTVDM [D27P]
c1

Could you place DPDTRIPVINLEDGTRLVGEDAPKNKDLVEWLKLHPSYTVDM [T37S] in its proper category? Many thanks.
c3

Which abundance fitness band matches DPDTRIPVINLEDGTRLVGEDAPKNKDLVEWLKGHPTYTVDM [L34G] ?
c3

Which category fits this record: DPDTRIPVINLEDGTRLVGEDAPKNKDLVEWLKLHPRYTVDM [T37R]
c3

In plain terms, what class is DPDTRIPVINLEDGTRLVGEDAPKNWDLVEWLKLHPTYTVDM [K26W] ?
c1

Please let me know in which category the item DPDTRIPVINLEDGTRLVGEDANKNKDLVEWLKLHPTYTVDM [P23N] belongs.
c1

Hello team, could you let me know which band the following variant falls into: DPDTRIPVINLEDGTRLVGEDAPKDKDLVEWLKLHPTYTVDM [N25D]
c2

Where would DPDTRIPVINLEDGTRLVGEDAPKNKDLVEWLKLHPTYTGDM [V40G] land among the classes by reported abundance fitness?
c2

Tag the class for DPDTRICVINLEDGTRLVGEDAPKNKDLVEWLKLHPTYTVDM [P7C]
c2

Bin this entry: CPDTRIPVINLEDGTRLVGEDAPKNKDLVEWLKLHPTYTVDM [D1C]
c2

Bin this entry: DPDTRIPVICLEDGTRLVGEDAPKNKDLVEWLKLHPTYTVDM [N10C]
c3

Lab note: which band did DPDTRIPVINLEDGTRLVGEDAPWNKDLVEWLKLHPTYTVDM [K24W] land in?
c1

Please let me know in which category the item DPDTRIPVINLEDGTRLVGEDAPKNKDLVEWLKLHPTYNVDM [T39N] belongs.
c2

Category of DPDTRIPVINLEDGTRLVGEDAPKNTDLVEWLKLHPTYTVDM [K26T] :
c2

Any idea which band DPDTRIPVINFEDGTRLVGEDAPKNKDLVEWLKLHPTYTVDM [L11F] is in?
c3

Dear colleague, I would appreciate it if you could identify the bin for DPDTRIPVINLEDGTQLVGEDAPKNKDLVEWLKLHPTYTVDM [R16Q] and reply at your convenience.
c2

Form field 'band' for DPDTRIPVINLEDGTRLVGEDAPKNKDLVEWLKLHGTYTVDM [P36G]
c1
